- Subject Of Test: T1, human TSH receptor (full length), coated on tubes (human, UniProt P16473 22-764)
- T1 construct: TSHR coated tubes as described in WO2004/050708A2; The receptor is full length and held on plastic tubes through a mouse MAb to the TSHR; also called thyroid stimulating hormone receptor
- Protocol Details: inhibition of 125I-K1-70 Fab (competitor) binding to TSHR coated tubes; 30 µg/mL in assay buffer
Recorded Metric: Inhibition of binding (%)
Just the number in %, nothing appended.

Below: 2 binders and their reported Inhibition of binding (%).
| Binder | Recorded Metric | Unit Annotation | Measured |
| --- | --- | --- | --- |
| K1-18 Fab (Fab, V domains shown) VH: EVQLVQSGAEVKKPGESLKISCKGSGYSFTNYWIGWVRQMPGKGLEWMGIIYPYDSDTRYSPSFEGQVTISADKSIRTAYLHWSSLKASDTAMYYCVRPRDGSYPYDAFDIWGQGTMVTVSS VL: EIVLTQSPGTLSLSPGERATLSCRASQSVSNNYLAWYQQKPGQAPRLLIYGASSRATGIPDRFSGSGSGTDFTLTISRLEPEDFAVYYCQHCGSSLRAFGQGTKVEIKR | Inhibition of binding (%) | % | 83.2 |
| K1-18 IgG (antibody, V domains shown, Human IgG1 kappa purified from hetero-hybridoma supernatant; also called human monoclonal autoantibody to the TSHR with TSH agonist activity) VH: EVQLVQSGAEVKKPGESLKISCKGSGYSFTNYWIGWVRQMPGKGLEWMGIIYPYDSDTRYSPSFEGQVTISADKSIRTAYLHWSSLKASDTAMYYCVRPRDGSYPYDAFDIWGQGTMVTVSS VL: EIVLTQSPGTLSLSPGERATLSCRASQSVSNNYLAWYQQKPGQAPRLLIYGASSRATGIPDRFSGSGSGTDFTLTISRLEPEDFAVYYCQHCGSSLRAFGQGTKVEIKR | Inhibition of binding (%) | % | 94.5 |

For the binder K1-70 IgG (antibody, V domains shown, Human IgG1 lambda purified from hetero-hybridoma supernatant; also called human monoclonal autoantibody to the TSHR with TSH antagonist activity) VH: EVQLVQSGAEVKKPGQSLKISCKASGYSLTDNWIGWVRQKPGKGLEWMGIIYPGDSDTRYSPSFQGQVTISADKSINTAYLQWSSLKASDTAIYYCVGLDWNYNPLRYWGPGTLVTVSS VL: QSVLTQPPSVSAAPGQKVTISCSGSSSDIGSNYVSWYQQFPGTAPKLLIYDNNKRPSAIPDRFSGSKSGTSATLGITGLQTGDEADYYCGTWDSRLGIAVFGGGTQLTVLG , report Inhibition of binding (%). 97.7

Fill in Inhibition of binding (%) for record K1-70 Fab (Fab, V domains shown) VH: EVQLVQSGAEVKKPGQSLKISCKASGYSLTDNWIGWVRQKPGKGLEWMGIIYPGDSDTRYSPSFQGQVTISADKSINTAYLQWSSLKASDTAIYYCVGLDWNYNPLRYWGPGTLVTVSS VL: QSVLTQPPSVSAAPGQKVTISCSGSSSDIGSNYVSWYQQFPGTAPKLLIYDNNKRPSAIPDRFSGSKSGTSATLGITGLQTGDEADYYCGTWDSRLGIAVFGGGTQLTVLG 95.1
